ASSAY_TARGET: CMTR1 (UniProt Q8N1G2)
Sequence: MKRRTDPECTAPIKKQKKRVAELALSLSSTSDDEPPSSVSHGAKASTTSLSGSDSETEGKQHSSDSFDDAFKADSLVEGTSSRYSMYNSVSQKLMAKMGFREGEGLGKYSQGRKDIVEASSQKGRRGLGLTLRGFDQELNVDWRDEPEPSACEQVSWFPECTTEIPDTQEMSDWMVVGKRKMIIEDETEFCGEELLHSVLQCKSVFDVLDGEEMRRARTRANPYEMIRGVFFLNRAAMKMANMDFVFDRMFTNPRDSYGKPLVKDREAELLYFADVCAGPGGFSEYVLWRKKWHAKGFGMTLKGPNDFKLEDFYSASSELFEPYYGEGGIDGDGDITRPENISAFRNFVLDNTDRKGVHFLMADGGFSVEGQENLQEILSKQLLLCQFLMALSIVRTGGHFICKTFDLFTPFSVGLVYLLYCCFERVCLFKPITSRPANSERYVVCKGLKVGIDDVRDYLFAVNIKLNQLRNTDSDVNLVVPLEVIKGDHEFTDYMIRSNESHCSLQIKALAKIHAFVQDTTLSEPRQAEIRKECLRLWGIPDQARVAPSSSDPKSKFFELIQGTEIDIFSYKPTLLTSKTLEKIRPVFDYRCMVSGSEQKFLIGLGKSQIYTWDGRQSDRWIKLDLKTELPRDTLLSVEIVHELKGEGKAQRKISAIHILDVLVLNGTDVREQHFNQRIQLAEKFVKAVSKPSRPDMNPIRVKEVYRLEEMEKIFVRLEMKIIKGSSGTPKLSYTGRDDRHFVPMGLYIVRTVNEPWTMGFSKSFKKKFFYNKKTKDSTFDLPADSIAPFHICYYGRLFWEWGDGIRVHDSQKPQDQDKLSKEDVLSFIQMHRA
PROCEDURE_TEXT: Kd (EC50 corrected by depletion factor)
PARAMETER: pKd
The read-out pKd is expressed as -log10 of concentration in moles per litre.

Given the entry `UAUUUAU` , report its measured pKd.
6.23

Please do the same for `AAUAAA` as well.
6.68
